test system: A549; test: relative viability (nuclei count vs DMSO), 5 days (fraction); higher = more cells survive; conditions: first compound 0.04 µM
For each of the compounds below, state its relative viability.
# output: bare number, no unit

Lab note: measured relative viability of C[C@@H]1CN(CC(=O)Nc2ccc3c(c2)Cc2cccc(-c4cc(=O)cc(N5CCOCC5)o4)c2S3)C[C@H](C)O1 + CC1(C)CCC(c2ccc(Cl)cc2)=C(CN2CCN(c3ccc(C(=O)NS(=O)(=O)c4ccc(N[C@H](CCN5CCOCC5)CSc5ccccc5)c(S(=O)(=O)C(F)(F)F)c4)cc3)CC2)C1 [Navitoclax] (partner 0.5 µM) was 1.3

Lab note: measured relative viability of COc1cc(N2CCC(C(N)=O)CC2)ccc1Nc1nc(N)c(Cl)c(Nc2ccccc2S(=O)(=O)C(C)C)n1 [HG-5-88-01] + CS(=O)(=O)N1CCN(Cc2cc3nc(-c4cccc5[nH]ncc45)nc(N4CCOCC4)c3s2)CC1 [Pictilisib] (partner 1 µM) was 0.482

Lab note: measured relative viability of COc1cc(N2CCC(C(N)=O)CC2)ccc1Nc1nc(N)c(Cl)c(Nc2ccccc2S(=O)(=O)C(C)C)n1 [HG-5-88-01] + CS(=O)(=O)CCNCc1ccc(-c2ccc3ncnc(Nc4ccc(OCc5cccc(F)c5)c(Cl)c4)c3c2)o1 [Lapatinib] (partner 2 µM) was 0.984

Lab note: measured relative viability of Clc1ccc(Nc2nnc(Cc3ccncc3)c3ccccc23)cc1 [Vatalanib] + C[C@]1(O)C[C@@H](c2nc(-c3ccc4ccc(-c5ccccc5)nc4c3)c3c(N)nccn32)C1 [Linsitinib] (partner 1 µM) was 0.51
